Cited source: patent US9206193B2

MEASURED_ENDPOINT: melting point

MOLECULE	melting point
COc1cc2cnc3c(c2cc1OC)Cc1c-3cc2c(c1CN1CCCC1)OCO2 [Compound 14b]	210 °C (dec.)

Q: Recall and state the measured melting point for COc1cc2cnc3c(c2cc1OC)Cc1c-3cc2c(c1CN(C)C)OCO2 [Compound 14a] .
Result: 205 to 207 °C

Q: Recall and state the measured melting point for COc1cc2cnc3c(c2cc1OC)Cc1c-3cc2c(c1CN1CCN(C)CC1)OCO2 [Compound 14d] .
Result: 296 °C (dec.)

Q: Recall and state the measured melting point for COc1cc2cnc3c(c2cc1OC)Cc1c-3cc2c(c1C)OCO2 .
Result: 272 to 274 °C (dec.)
